tgt: K507A-CHC^ankle (human, UniProt Q00610 358-574, K507A)
Sequence (Q00610 358-574 K507A): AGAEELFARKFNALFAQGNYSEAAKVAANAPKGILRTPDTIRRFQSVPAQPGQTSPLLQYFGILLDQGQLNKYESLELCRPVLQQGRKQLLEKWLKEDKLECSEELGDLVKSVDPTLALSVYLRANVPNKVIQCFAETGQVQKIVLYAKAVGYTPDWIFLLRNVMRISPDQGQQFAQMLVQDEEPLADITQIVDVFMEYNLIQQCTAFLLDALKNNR
measurement_protocol: FP
Positions of bridges follow the written chain, without caps; N, C: chain ends. Non-standard residues stand in square brackets, D forms with d. Primed or numbered codes have the meaning given here. No end group written: not given here. FAM″ = 5(6)-carboxyfluorescein label; S5 = C=CCCC[C@](C)(N)C(=O)O; PEG3′ = PEG3 linker

binder: {FAM″}-KESALRK[S5]ELL[S5]EADPAFRDS-NH2 (staple 8-12) [negative control SP TACC3 (F563A & L566A)]
units_label: µM
Kd: 280

binder: {FAM-PEG3′}-KESALRK[S5]ELL[S5]EFDPLFRDS (designed binder, staple 8-12) [Opt PEG3 SP TACC3]
units_label: µM
Kd: 0.178

binder: {FAM″}-KESALRKQDLY[S5]KFD[S5]LLRDS-NH2 (staple 12-16) [SP5D]
units_label: µM
Kd: 152

binder: KESALRKXDLYXKFDPLLRDS (N-terminal FAM; X557 and X561 are (S)-2-(4-pentenyl)alanine joined as i,i+4 hydrocarbon staple; staple position and limits inferred from Opt SP TACC3 (KESALRK*ELL*…), exact sequence only in Fig 3A) [SP4D]
units_label: µM
Kd: 5.2
